assay: Vero cells viability qHTS for Zika virus inhibitors (AID 1347167); settings: cytotoxicity counter-screen (Zika); series mostly up to 45.9 µM
Results filed as inconclusive are left out. Calls of active or inactive are those of the source. The call rests on the fitted dose curve; in most records, active means well fitted cell-killing curve with a large enough effect; inconclusive means small, poorly fitted or top-dose-only effect; inactive means flat fitted curve, though single readings scatter.
PROPERTY: outcome

The cases that follow already have their outcome on record.
C[C@@H]1O[C@@H](O[C@H]2C[C@@H](O)[C@]3(CO)C4C(CC[C@]3(O)C2)[C@@]2(O)CC[C@H](C3=CC(=O)OC3)[C@@]2(C)C[C@H]4O)[C@H](O)[C@H](O)[C@H]1O (stereo partly drawn) = inactive
COC1C(O)C(C)O[C@@H](OC2CC[C@@]3(C)C4CC[C@]5(C)C(C6=CC(=O)OC6)CC[C@@]5(O)C4CC[C@@H]3C2)C1O (stereo partly drawn) = inactive
C[C@@H]1[C@@H]2Cc3ccc(O)cc3[C@@]1(C)CCN2CCc1ccccc1 = inactive
C[C@H]1O[C@@H](O[C@H]2[C@@H](O)C[C@H](O[C@H]3[C@@H](O)C[C@H](O[C@H]4CC[C@]5(C)C6CC[C@]7(C)[C@@H](C8=CC(=O)OC8)CC[C@]7(O)C6CC[C@@H]5C4)O[C@@H]3C)O[C@@H]2C)C[C@H](O)[C@@H]1O (stereo partly drawn) = inactive
CN(C(=O)Cc1ccc(Cl)c(Cl)c1)[C@@H](CN1CCCC1)c1cccc(OCC(=O)O)c1 = inactive

Fill in outcome for each of the 4 molecules listed.
1. Ic1cncc(OC[C@@H]2CCN2)c1
2. C[C@H]1[C@H]2Cc3ccc(O)cc3[C@]1(C)CCN2CCc1ccccc1
3. C=CCN1CCC2(C)c3cc(O)ccc3C[C@H]1[C@H]2C
4. C=CCN1CCC2(C)c3cc(O)ccc3CC1C2C (stereo not drawn)

Result:
1. inactive
2. inactive
3. inactive
4. inactive

Fill in outcome for each of the 4 molecules listed.
1. CN1CC[C@@]23CCCC[C@@H]2[C@@H]1Cc1ccc(O)cc13
2. Clc1cncc(N2CCNCC2)n1
3. CC1OC(O[C@H]2C[C@@H](O)[C@]3(CO)[C@H]4[C@H](O)C[C@]5(C)[C@@H](C6=CC(=O)OC6)CC[C@]5(O)[C@@H]4CC[C@]3(O)C2)C(O)C(O)C1O (stereo partly drawn)
4. CN1CC[C@@]23CCCCC2C1Cc1ccc(O)cc13 (stereo partly drawn)

Result:
["inactive", "inactive", "inactive", "inactive"]

----------
assay: qHTS for Inhibitors of the Functional Ribonucleoprotein Complex (vRNP) of Lymphocytic Choriomeningitis Arenaviruses (LCMV): Viability assay - alamar blue signal for LCMV Primary Screen (AID 1347085); conditions: alamar blue viability counter-screen, LCMV vRNP screen cells; series mostly up to 57.5 µM; further: nearly all actives have a fitted effect of over 80% in size; further: potency means the concentration at half of the fitted maximal effect
Records with an inconclusive call do not appear. Calls of active or inactive are those of the source. Calls follow the shape of the full dose curve; tested in HEK293 reporter line.
PROPERTY: Potency

The cases that follow already have their Potency on record.
C#C[C@]1(O)CC[C@@H]2[C@@H]3CCc4cc(O)ccc4[C@H]3CC[C@@]21C = 3.06 µM (active)
C[C@H]1COC2=C1C(=O)C(=O)c1c2ccc2c1CCCC2(C)C = inactive
CCCCCCC[C@@H](C/C=C/CCC(=O)N(C)C/C(=C/Cl)C/C(=C\C(=O)N1CC(OC)=CC1=O)OC)OC = inactive
CC1CC2C3CCC4=CC(=O)C=C[C@]4(C)[C@@]3(F)[C@@H](O)C[C@]2(C)[C@@]1(O)C(=O)CO (stereo not given in full) = inactive
C=C[C@@H]1CN2CCC1C[C@@H]2C(O)c1ccnc2ccc(OC)cc12 (stereo not given in full) = inactive

Fill in Potency for each of the 5 molecules listed.
1. O=C1CCCCCCCCCCCCCCCO1
2. CCC[C@H](N[C@@H](C)C(=O)N1[C@@H]2CCCC[C@H]2C[C@H]1C(=O)O)C(=O)OCC
3. COc1cc2cc(Oc3ccc4ccc(=O)oc4c3)c(=O)oc2cc1OC(C)=O
4. NC[C@@H]1O[C@H](c2ccccc2)Cc2c1ccc(O)c2O
5. Nc1cccc(-c2cc3c(Oc4cccc(O)c4)ncnc3[nH]2)c1

Result:
["inactive", "inactive", "inactive", "inactive", "30.6 µM (active)"]
